Provenance of the data: BindingDB's records for doi:10.1016/j.bmcl.2008.07.062

- procedure.details: Inhibition of JAK3 expressed in mouse BAF3 cells assessed as cytotoxicity
pIC50: −log10 of the molar value.
measured.parameter: pIC50

Query: Given C=CC(=O)Nc1ccc2ncnc(Nc3cccc(Br)c3)c2c1 , state its recorded pIC50.
Response: < 5.00
